Give measured inhibition for each item. Keep answers brief.
test-details: inhibitors of HIV fusion peptide binding, primary screen, biochemical, uHTS, fluorescence dequenching (AID 1986)
particulars: cell-free peptide binding, 30 min, at 20 µM, stronger effect = higher value
Among all 290,000 compounds or so, about 890 (0.31%) were called active. This is one part of a sample in which actives are shown more often than they occur.
Dear colleague, please return just the value in %, with no unit written.

Fill in: inhibition of N#Cc1c(NC(=S)NC(=O)c2ccccc2)sc2c1CCN(CCc1ccccc1)C2 is ___
138

Which measured inhibition value corresponds to Oc1ccccc1/C=N/n1c(-c2ccccc2)n[nH]c1=S ?
0.3

Record request: inhibition value, item Cc1ccc(S(=O)(=O)/N=C2/NC(=O)/C(=C/c3ccccc3)S2)cc1
59.7

Please look up its inhibition: COc1cccc(/C=C2\Oc3cc(OCC(=O)N4Cc5ccccc5C[C@H]4C(=O)O)ccc3C2=O)c1
64.4

Which inhibition reading was recorded for the compound Cn1c(=O)n(C)c2cc(/C=N/NC(=O)c3ccncc3)ccc21 ?
1.3

Tell me the measured inhibition of COc1cc(COCC(O)CN2CCOCC2)cc(OC)c1OC (stereo not drawn) , please.
-2.1

Sample CC(C)N1CCc2c(sc(NC(=S)NC(=O)c3ccccc3)c2C#N)C1 — what was its inhibition?
81

What value of measured inhibition is listed for NC(=O)c1c(NC(=O)c2ccccc2F)sc2c1CCCC2 ?
-0.3

Given the compound CC(C)N1CCc2c(sc(NC(=O)Cc3ccccc3)c2C#N)C1 , what is its reported inhibition?
-0.4

inhibition for CC(C)Cc1ccc(CN2CCCC(NC(=O)CCN3CCCO3)C2)cc1 (stereo not drawn) ?
-1.9

Requested field: inhibition. Item: CC(C)(C)C(=O)NC(=S)Nc1ccccc1C(N)=O
-0.3

Which inhibition value belongs to Cc1ccc(S(=O)(=O)/N=C2/NC(=O)/C(=C/c3ccccn3)S2)cc1 ?
13

Return reported inhibition; argument: CCc1nc(N[C@@H](CC(C)C)C(=O)O)c2oc3ccccc3c2n1
4.3

Report inhibition for Oc1c(Br)cc(Br)cc1/C=N/n1c(-c2ccccc2)n[nH]c1=S please.
20.3

Recorded inhibition of O=[N+]([O-])c1cccc(-c2noc(-c3ccco3)n2)c1 , please.
-2.4

Field request: inhibition | item: O=C1CC(NNC(=O)c2ccccc2)C(=O)N1 (stereo not drawn)
-0.3

Fill in: inhibition of Cc1ccc(NC(=S)NCCN(C2CCCCC2)C2CCCC2)cc1C is ___
0.4

Endpoint output: inhibition of COC(=O)c1cc(N2CCNCC2)nc2ccccc12 . Value?
6.8

Given the compound COc1ccccc1C(CNc1nc(C(F)(F)F)nc2ccccc12)N(C)C (stereo not drawn) , what is its reported inhibition?
1.8

# input compound: Cc1c(C(=O)Nc2ccccc2)cn2c(nc3ccccc32)c1C#N ; wanted: its inhibition
3.1

Fill blank: measured inhibition of the compound COC(=O)Nc1sc2c(c1C(N)=O)CCC(C)C2 (stereo not drawn) is ____.
0.2

Consider the compound CCOC(=O)c1cc(-c2cccs2)nc2c1c(C)nn2-c1ccccn1 and give its measured inhibition.
-2.7

Report inhibition for Oc1ccc(Cl)cc1N=Nc1ccccc1 please.
-2.6

Which inhibition is listed for Cc1ccc(S(=O)(=O)/N=C2/NC(=O)/C(=C\c3cc(Br)cc(Br)c3O)S2)cc1 ?
94.7

Quick check: inhibition of Oc1ccc(Br)cc1/C=N/n1c(-c2ccccc2)n[nH]c1=S ?
6

Which inhibition reading was recorded for the compound Cc1c(Br)c(O)c(Br)c(O)c1/C=N/n1c(-c2ccccc2)n[nH]c1=S ?
62.9

Any idea what its inhibition is? The compound is CC(C)CC(C(=O)Nc1oc(-c2ccco2)c(-c2ccco2)c1C#N)N1C(=O)c2ccccc2C1=O (stereo not drawn)
-0.7

Bench note: what inhibition did CCN(CC)S(=O)(=O)c1ccc(C(=O)/C=C/c2ccc(-c3ccc([N+](=O)[O-])cc3)o2)cc1 show?
73.1

Entry under review: COc1ccc(OC)c(/C=C2\Oc3cc(OCC(=O)N4CC(O)C[C@H]4C(=O)O)ccc3C2=O)c1 (stereo partly drawn) . Reported inhibition?
2.3

What does the record list as inhibition for CN(C)c1cccc(NC(=O)c2cccc3ccccc23)c1 ?
-1.2

Query: inhibition; subject: CCOC(=O)C1=C(C)N(CC)C(=S)NC1c1ccccc1OC(F)F (stereo not drawn)
-2

Please give the measured inhibition for this compound: C#CCOCCOCCOCCNc1nc(N2CCN(C(=O)[C@H]([C@@H](C)CC)n3cc([C@@H](N)CC(C)C)nn3)CC2)nc(N2CCN(C(=O)[C@H](CCCCN)n3cc([C@@H](N)CO)nn3)CC2)n1
-1.1

Return reported inhibition; argument: Cn1cc(CN2CCN(CC(C)(C)C)C(CCO)C2)c2ccccc21 (stereo not drawn)
2.5

If you can, please state the reported inhibition value of Cc1ccc(S(=O)(=O)/N=C2/NC(=O)/C(=C/c3ccncc3)S2)cc1 .
0.8

What measured inhibition goes with N#Cc1c(NC(=S)NC(=O)c2ccccc2)sc2c1CCCC2 ?
0.9

For the compound CCCn1cc(CN2CCC(Cc3cccc(F)c3)(C(=O)OCC)CC2)c(C)n1 , what inhibition is on record?
-3.2

Query: inhibition; subject: CC(C)c1ccc(NC(=O)CCNS(=O)(=O)c2ccc3[nH]c(=O)oc3c2)cc1
2.1

Name the reported inhibition value associated with the compound CC1CCCN(S(=O)(=O)c2ccc([N+](=O)[O-])cc2)C1 (stereo not drawn)
1.5

Returns the measured inhibition for the input compound. Input: COc1ccc(OC)c(CNC(=O)CCC(=O)N2Cc3cccc(OC)c3Oc3ncccc32)c1
1.2

// inhibition lookup, key: Oc1c(Br)cc(/C=N/n2c(-c3ccccc3)n[nH]c2=S)c(O)c1Br
53.2

Item under review: N#Cc1c(N)oc(-c2ccco2)c1-c1ccco1 . Reported inhibition?
2.6

Entry under review: CC(Oc1ccccc1)C(=O)Nc1oc(-c2ccco2)c(-c2ccco2)c1C#N (stereo not drawn) . Reported inhibition?
76.1

Give its inhibition value. Item: CCCN1CCc2c(sc(NC(=S)NC(=O)c3ccccc3)c2C#N)C1
78.4

---

test-details: inhibitors of HIV fusion peptide binding, primary screen, biochemical, uHTS, fluorescence dequenching (AID 1986)
particulars: cell-free peptide binding, 30 min, measured here: repeat confirmation average inhibition, at 18.6 µM, stronger effect = higher value
Screen size: about 290,000 compounds; about 890 (0.31%) were called active. What follows is part of a selection rich in actives, with near analogues and random picks from the rest.
Lab note: anything with inhibition at or over 50% counts as Y; the rest go in N.

Threshold query (inhibition >= 50%) on Cc1ccc(C(=O)NN2C(=O)/C(=C/c3cn(C)c4ccccc34)SC2=S)cc1
Y

Identify whether the reported inhibition of the following molecule is 50% or greater: O=C(O)c1ccccc1-c1ccc(/C=c2\sc3nc4cc(Br)cnc4n3c2=O)o1
N

Could you tell me if the measured inhibition of COC(=O)CCCC1=CC2=CC(=O)C(C)(OC(=O)C3CCCC3)C(=O)C2=CO1 (stereo unspecified) reaches 50% or more?
N

Is it the case that O=C1/C(=C\c2ccco2)CCC/C1=C\c1ccco1 has inhibition reaching or exceeding 50%?
N

Is inhibition for Cn1cc(/C=C2\SC(=S)N(NC(=O)c3ccccc3)C2=O)c2ccccc21 at or above 50%?
N

# bool: inhibition of N#Cc1c(-c2ccccc2Cl)noc1/C=C/Nc1ccc(C(=O)O)cc1 >= 50%
N

Identify whether the reported inhibition of the following molecule is 50% or greater: Cc1ccc(NC(=O)c2ccccc2NS(=O)(=O)c2ccc(Cl)s2)cc1
N

Dear colleague, could you confirm whether COC(=O)Cn1cc(/C=C/c2cc[n+](C)cc2)c2ccccc21 has inhibition at or above 50%?
Y

Is reported inhibition greater than or equal to 50% here: Cc1cc(C)c(S(=O)(=O)/N=C2\C=C(NS(=O)(=O)c3ccccc3)C(=O)c3ccccc32)c(C)c1
N

Is inhibition for O=Cc1ccc2noc(-c3ccc(F)cc3)c2c1 at or above 50%?
Y

Kindly determine if inhibition recorded for CCOC(=O)c1c(-c2ccc(OC)cc2)csc1/N=C/C1C(=O)CCCC1=O is above or exactly 50%.
N

Check if inhibition >= 50% (inclusive). Item: CCN(CC)c1ccc2cc(C(N)=O)/c(=N\NC(=O)c3ccncc3)oc2c1
Y

Given COc1ccc(/C=C2\C(=O)NC(=S)N2C(=O)c2ccc(F)cc2)cc1 , state whether its inhibition is at least 50%.
Y

Entry CNc1ccc(Br)cc(C(=O)/C=C/c2cccc(Cl)c2Cl)c1=O : is its inhibition no less than 50%?
N

Reported inhibition at or above 50%? COc1ccc(-c2csc(/C(C#N)=C\c3ccc(O)c([N+](=O)[O-])c3)n2)cc1OC
N

Hi, just wondering whether O=C(O)c1ccc(/C=N/NC(=O)c2cc(-c3ccc4c5c(cccc35)CC4)n[nH]2)cc1 shows inhibition of 50% or higher.
N

Is the recorded value of inhibition equal to or greater than 50% for this molecule? Cn1cc(/C=C2\SC(=S)N(NC(=O)c3ccccc3Cl)C2=O)c2ccccc21
Y

Exam item: decide whether the reported inhibition for CCN(CC)C(=O)Cn1c(C)c(/C=C/c2cc[n+](C)cc2)c2ccccc21 is at least 50%.
Y

Exam item: decide whether the reported inhibition for O=C(O)CCCN1C(=O)/C(=C\c2ccccc2OCc2ccccc2)SC1=S is at least 50%.
N

Could you tell me if the measured inhibition of COc1ccc2sc(/C=C/c3ccccc3O)[n+](C)c2c1 reaches 50% or more?
Y

In plain terms: is recorded inhibition at least 50% for CC(C)(C)c1ccc(C(=O)Nc2cccc3ncccc23)cc1 ?
Y
